Data provenance is patent US20260200939A1.

target: Recombinant RNF126 (Homo sapiens, UniProt Q9BV68); construct: FLAG (C); host or cells: HEK293T; assay: RNF126 Binding Assay, gel-based ABPP
Sequence (Q9BV68 whole entry): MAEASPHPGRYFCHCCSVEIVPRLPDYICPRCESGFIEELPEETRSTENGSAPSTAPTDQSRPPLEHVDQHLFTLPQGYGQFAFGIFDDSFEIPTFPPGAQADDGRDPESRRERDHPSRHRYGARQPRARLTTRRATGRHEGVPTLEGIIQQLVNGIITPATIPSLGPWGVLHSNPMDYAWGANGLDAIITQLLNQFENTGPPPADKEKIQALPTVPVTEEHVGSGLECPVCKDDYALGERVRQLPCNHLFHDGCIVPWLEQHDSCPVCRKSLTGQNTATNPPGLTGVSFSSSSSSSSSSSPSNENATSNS
pIC50: −log10 of the molar value.
REPORTED PROPERTY: pIC50

Reference set, count: 6
• CC(C)(C)OC(=O)N1CCN(C(=O)/C=C/C(=O)c2ccc3c(c2)NC(=O)CO3)CC1 [Compound 401] = > 7.00
• CC(C)(C)OC(=O)N1CCN(C(=O)/C=C/C(=O)c2cccc(Br)c2)CC1 [Compound 163] = > 7.00
• Cc1ccccc1C(=O)/C=C/C(=O)N1CCN(C(=O)OC(C)(C)C)CC1 [Compound 407] = > 7.00
• CC(C)(C)OC(=O)N1CCN(C(=O)/C=C/C(=O)c2ccccc2C#N)CC1 [Compound 415] = > 7.00
• CC(C)(C)OC(=O)N1CCN(C(=O)/C=C/C(=O)c2ccc(C#N)cc2)CC1 [Compound 416] = > 7.00
• O=C(/C=C/C(=O)N1CCNCC1)c1ccccc1F [Compound 149] = 5.00 to 6.00

Briefly, pIC50 measured for CC(C)(C)OC(=O)N1CCN(C(=O)/C=C/C(=O)c2cccc(C(F)(F)F)c2)CC1 [Compound 162] : > 7.00

Summary for this compound, COc1cccc(C(=O)/C=C/C(=O)N2CCN(C(=O)OC(C)(C)C)CC2)c1 [Compound 156] : pIC50 is > 7.00

# compound Cc1cccc(C(=O)/C=C/C(=O)N2CCN(C(=O)OC(C)(C)C)CC2)c1 [Compound 157] ; its pIC50 = > 7.00

Record CC(C)(C)OC(=O)N1CCN(C(=O)/C=C/C(=O)c2ccc(Br)cc2)CC1 [Compound 164] . Reported pIC50: > 7.00

Measured pIC50 of COc1ccc(C(=O)/C(C)=C/C(=O)N2CCNCC2)cc1 [Compound 145] : < 4.30

Quick note, pIC50 for COc1ccc(C(=O)/C=C\C(=O)N2CCN(C(=O)OC(C)(C)C)CC2)cc1 [Compound 411] landed at 4.30 to 5.00

pIC50 measured on COc1ccc(C(=O)/C=C/C(=O)N2CCN(C(=O)OC(C)(C)C)CC2)cc1F [Compound 414] = > 7.00

The value of pIC50 measured for the compound COc1ccccc1C(=O)/C=C/C(=O)N1CCNCC1 [Compound 147] turned out to be 5.00 to 6.00

---

molecular target: BRD4 short (Homo sapiens, UniProt O60885); construct: endogenous in cells; host or cells: HEK293T; assay: BRD4 (short) degradation assay, Western blotting; type: cell-based; conditions: second value of cell (long/short)
REPORTED PROPERTY: DC50

Field: example entries. Status: answers known.
- COc1ccc(C(=O)/C=C/C(=O)N2CCN(C(=O)C[C@@H]3N=C(c4ccc(Cl)cc4)c4c(sc(C)c4C)-n4c(C)nnc43)CC2)cc1F: < 100 nM
- Cc1sc2c(c1C)C(c1ccc(Cl)cc1)=N[C@@H](CC(=O)N[C@H]1C[C@H](NC(=O)/C=C/C(=O)c3cccc(Cl)c3Cl)C1)c1nnc(C)n1-2: 1000 to 5000 nM

Value of DC50 reported for the molecule COc1ccc(C(=O)/C=C/C(=O)N[C@H]2C[C@H](NC(=O)CC3N=C(c4ccc(Cl)cc4)c4c(sc(C)c4C)-n4c(C)nnc43)C2)c(F)c1 (some centres unmarked) is 150 nM

Sure, the documented DC50 for COc1ccc(C(=O)/C=C/C(=O)N2CC3CN(C(=O)C[C@@H]4N=C(c5ccc(Cl)cc5)c5c(sc(C)c5C)-n5c(C)nnc54)CC3C2)cc1 (some centres unmarked) is 10 to 100 nM

Please fill in: DC50 reported for COc1ccc(C(=O)/C=C/C(=O)N2CC3CCC2CN3C(=O)C[C@@H]2N=C(c3ccc(Cl)cc3)c3c(sc(C)c3C)-n3c(C)nnc32)cc1 (some centres unmarked) = 10 to 100 nM
